# Tested on: SNK-6 (IL-2 2.5 ng/mL);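 note: normalised to DMSO-only wells as negative and benzethonium chloride as positive control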
# PROTOCOL_SUMMARY: percent inhibition of viability; higher = more inhibition
# CONDITION_CONTEXT: 72 h; 1000 nM
Decision: percent inhibition of viability beneath 20% gives Satisfied; percent inhibition of viability meeting or exceeding 20% gives Not satisfied.

COMPOUND	LABEL_CLASS
C[C@H]1C[C@@H]2[C@H]([C@@H](O)C[C@@]3(C)[C@H]2CC[C@]3(O)C(=O)CO)[C@@]2(C)C=CC(=O)C=C12 [Methylprednisolone] (max concentration tested 10000 nM)	Satisfied
CCc1nc(-c2cccc(C)c2)c(-c2ccnc(NC(=O)c3ccccc3)c2)s1 [TAK-715] (max concentration tested 10000 nM)	Satisfied
COc1cccc2c1c(O)c(C(=O)N(C)c1ccc(C(F)(F)F)cc1)c(=O)n2C [Tasquinimod] (max concentration tested 10000 nM)	Satisfied
COc1cc(Nc2ncc3c(n2)-c2ccc(Cl)cc2C(c2c(F)cccc2OC)=NC3)ccc1C(=O)O [Alisertib] (max concentration tested 10000 nM)	Not satisfied
O=C(O)c1ccc(O)c2ncccc12 [IOX-1] (max concentration tested 100000 nM)	Satisfied
C=CC(=O)Nc1cc2c(Nc3ccc(F)c(Cl)c3)ncnc2cc1OCCCN1CCOCC1 [Canertinib] (max concentration tested 10000 nM)	Satisfied
CN1CCN(c2cc(C(=O)Nc3ccc4c(c3)-c3c(c(C(N)=O)nn3-c3ccc(F)cc3)CC4)c(Cl)cn2)CC1 [PHA 408] (max concentration tested 10000 nM)	Not satisfied
CC1(C)CCC(CN2CCN(c3ccc(C(=O)NS(=O)(=O)c4ccc(NCC5CCOCC5)c([N+](=O)[O-])c4)c(Oc4cnc5[nH]ccc5c4)c3)CC2)=C(c2ccc(Cl)cc2)C1 [Venetoclax] (max concentration tested 10000 nM)	Not satisfied
CCOc1cc2ncc(C#N)c(Nc3ccc(OCc4ccccn4)c(Cl)c3)c2cc1NC(=O)/C=C/CN(C)C [Neratinib] (max concentration tested 1000 nM)	Not satisfied
O=C(Nc1ccncc1)C(=O)c1cn(Cc2ccc(Cl)cc2)c2ccccc12 [Indibulin] (max concentration tested 10000 nM)	Not satisfied
O=NN(CCCl)C(=O)NCCCl [Carmustine] (max concentration tested 10000 nM)	Satisfied
Cc1[nH]c2ccccc2c1CCNCc1ccc(/C=C/C(=O)NO)cc1 [Panobinostat] (max concentration tested 1000 nM)	Not satisfied
